Consider the following variants and their measured yeast fitness readings.
B1: tRNA (parent)
chain: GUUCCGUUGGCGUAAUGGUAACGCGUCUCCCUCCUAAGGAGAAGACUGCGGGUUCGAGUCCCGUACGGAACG

# Variants of: B1
# protocol-notes: yeast fitness relative to wild type (ratio to wild type); higher = fitter; tRNA-Arg(CCU), competitive growth, 37 C, YPD
Fewer inactive variants are shown than the library holds.

var | yeast fitness
U3A G25A A37U C61A | ≤ 0.5
G6A C22G C33A A36C A43G C55G | ≤ 0.5
A20G A40C A42U A43C | ≤ 0.5
G17C C27G U28C A65U | ≤ 0.5
U13G A21U C22G U35A A65G A70C | ≤ 0.5
C11G C29U C34U G51C C66U | ≤ 0.5
U2A G12A G17A A20G A21C C29A A69U | ≤ 0.5
U7A A20G G41A A42C G50C A70G | ≤ 0.5
G18A G39U G48A C61G | ≤ 0.5
C5A U8A U16G A20U A36G C60G | ≤ 0.5
G10C C11U A21G A40G | ≤ 0.5
C24A U26G A43C A70G | ≤ 0.5
C29G G38A G44A C46U C62G | ≤ 0.5
C5A C29A C34G G68C | ≤ 0.5
A15C G50A C55U C61G | 0.804
G10A U35C G56A | ≤ 0.5
G10C A15G | 0.786
C4U C11U C22G C61A | ≤ 0.5
C24U A37G A45U C55U | 0.708
G10A G23A C34G | ≤ 0.5
A20C C29U C49G A70U | ≤ 0.5
G38C G39C C46U A69U | ≤ 0.5
U7A C27U G52C G68C | ≤ 0.5
U19A C46U G67A | 0.957
C5U U13G C33A A37C | 0.555
C11A A21C C30U C66U | 0.539
C11G U13A | 1.03
A20C U32A C34G A57C C66U | ≤ 0.5
C5A A14U G50A A57U A70G | ≤ 0.5
C27A C46A A69G | 0.582
